Field: Refined occupancy. Provide a value for each of the molecules that follow.
- system: SARS-CoV-2 NSP3 Mac1 (Severe acute respiratory syndrome coronavirus 2, UniProt P0DTD1)
- Type: binding
- experimental.parameters: ligand occupancy after refinement (phenix.refine); crystal soaking of Mac1
// print number alone

Task: GET /values?readout=Refined occupancy&item= CNc1cnc(C(=O)N2CC(c3noc(O)n3)C2)cn1.O=C(O)C(F)(F)F [Z6567]
Result: 62

Task: Recorded Refined occupancy of CS(=O)(=O)NC(=O)C1CN(c2ncnc3[nH]c4cc(F)ccc4c23)CCO1 (centres unmarked) [LL114_0019] , please.
Result: 20

Task: Quick check: Refined occupancy of Nc1ncnc(N2CCCC(CCC(=O)O)C2)c1Cl (centres unmarked) [REAL250003296134] ?
Result: 18

Task: # lookup: Refined occupancy of CC(C)NC(=O)Nc1ccc(C(=O)NC2c3cccc(O)c3CC2C(=O)O)cc1 (centres unmarked) [Z8539_0046]
Result: 42

Task: Form field: reported Refined occupancy of O=c1[nH]nc(C2CCCN(c3ncnc4[nH]ccc34)C2)o1 (centres unmarked) [Z7655]
Result: 18
